EC50 for assorted compounds
target-or-test-system: human cholecystokinin-1 receptor (CCK-1R) (Homo sapiens)
Construct: host or cells: 1321-N1 cells
Sequence (P32238 1-428): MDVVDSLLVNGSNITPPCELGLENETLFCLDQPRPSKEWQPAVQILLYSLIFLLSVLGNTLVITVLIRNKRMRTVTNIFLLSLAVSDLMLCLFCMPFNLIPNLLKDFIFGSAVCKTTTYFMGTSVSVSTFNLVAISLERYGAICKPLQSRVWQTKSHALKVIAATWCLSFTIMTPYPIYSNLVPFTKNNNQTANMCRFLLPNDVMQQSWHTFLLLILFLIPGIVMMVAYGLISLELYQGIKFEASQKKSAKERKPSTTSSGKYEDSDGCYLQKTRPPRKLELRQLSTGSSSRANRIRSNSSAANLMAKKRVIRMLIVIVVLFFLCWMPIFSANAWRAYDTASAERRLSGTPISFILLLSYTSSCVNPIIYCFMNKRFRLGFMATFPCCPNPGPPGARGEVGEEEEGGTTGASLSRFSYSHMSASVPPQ
measurement-notes: In vitro potency on CCK-1R, whole cell functional assay (IP1 accumulation, IP-One HTRF)
Format: cell-based
Starred links: 1 amine or outer side, 2 acyl side, 3 side chain; linkers in the order of their positions; H or OH if unused. Non-standard residues stand in square brackets, D forms with d. Residues, ends and D or L forms follow the SMILES beside them. *: point of attachment. Phe(4-CH2SO3H) = N[C@@H](Cc1ccc(CS(=O)(=O)O)cc1)C(=O)O; C18 diacid = O=C(O)CCCCCCCCCCCCCCCCC(=O)*; C16 diacid = O=C(O)CCCCCCCCCCCCCCC(=O)*; γGlu = O=C(O)[C@H](CCC(=O)[*:2])N[*:1]; NMeF = CN[C@@H](Cc1ccccc1)C(=O)O; dNMeD = CN[C@H](CC(=O)O)C(=O)O; Nle = CCCC[C@H](N)C(=O)O; AEEA = NCCOCCOCC(=O)O
The answer should read as a number with its unit following.

>  <compound>
CCCC[C@H](NC(=O)[C@H](Cc1ccc(CS(=O)(=O)O)cc1)NC(=O)[C@H](CC(=O)O)NC(=O)COCCOCCNC(=O)[C@H](CCCCN)NC(=O)COCCOCCNC(=O)COCCOCCNC(=O)CC[C@H](NC(=O)CCCCCCCCCCCCCCCCC(=O)O)C(=O)O)C(=O)NCC(=O)N[C@@H](Cc1c[nH]c2ccccc12)C(=O)N[C@@H](CCCC)C(=O)N(C)[C@H](CC(=O)O)C(=O)N(C)[C@@H](Cc1ccccc1)C(N)=O [Example 19] ({C18 diacid-γGlu-AEEA-AEEA}-K[AEEA]D[Phe(4-CH2SO3H)][Nle]GW[Nle][dNMeD][NMeF]-NH2)

>  <value-measured>
0.21 nM

$$$$

// moving on: another record for EC50
Ask: Entry CCCC[C@H](NC(=O)[C@H](Cc1c[nH]c2ccccc12)NC(=O)CNC(=O)[C@H](CC(C)C)NC(=O)[C@H](Cc1ccc(CS(=O)(=O)O)cc1)NC(=O)[C@H](CC(=O)O)NC(=O)COCCOCCNC(=O)COCCOCCNC(=O)CC[C@H](NC(=O)CCCCCCCCCCCCCCC(=O)O)C(=O)O)C(=O)N(C)[C@H](CC(=O)O)C(=O)N(C)[C@@H](Cc1ccccc1)C(N)=O [Example 6] ({C16 diacid-γGlu-AEEA-AEEA}-D[Phe(4-CH2SO3H)]LGW[Nle][dNMeD][NMeF]-NH2) : reported EC50 = ?
Reply: 0.2 nM
